Cited source for all entries: patent US20220356186A1

Listed compounds paired with reported IC50
- target_or_test_system: EIF2AK3 (PERK) catalytic domain (amino acids 536-1116) (Homo sapiens, UniProt Q9NZJ5)
- Construct: EIF2AK3 (PERK) catalytic domain (amino acids 536-1116)
- Sequence (Q9NZJ5 536-1116): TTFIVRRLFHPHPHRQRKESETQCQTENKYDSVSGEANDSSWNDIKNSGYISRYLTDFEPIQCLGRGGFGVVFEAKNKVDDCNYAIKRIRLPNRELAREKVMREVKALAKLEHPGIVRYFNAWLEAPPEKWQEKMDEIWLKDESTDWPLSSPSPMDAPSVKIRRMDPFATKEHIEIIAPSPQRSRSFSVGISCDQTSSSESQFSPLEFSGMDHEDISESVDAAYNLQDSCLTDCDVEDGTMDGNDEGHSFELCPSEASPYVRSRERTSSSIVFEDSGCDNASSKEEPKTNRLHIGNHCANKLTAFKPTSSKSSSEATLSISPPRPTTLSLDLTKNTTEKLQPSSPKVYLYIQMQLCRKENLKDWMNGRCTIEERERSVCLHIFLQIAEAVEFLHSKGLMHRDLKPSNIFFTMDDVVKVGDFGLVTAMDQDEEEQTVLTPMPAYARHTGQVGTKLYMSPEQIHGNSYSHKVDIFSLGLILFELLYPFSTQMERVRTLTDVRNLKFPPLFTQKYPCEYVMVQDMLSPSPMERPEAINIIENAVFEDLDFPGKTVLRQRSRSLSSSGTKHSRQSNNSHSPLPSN
- procedure_summary: PERK in vitro activity assay (isolated), TR-FRET kinase assay
- Format: biochemical
- test_conditions: isolated PERK enzyme, 1.5 μM ATP; read-out: Biochemical IC50

>  <compound>
CCc1cc(NC(=O)C(O)c2cccc(F)c2)ccc1-c1cn(C)c2nc(C)nc(N)c12 (stereo not shown) [Example 68]

>  <IC50>
0.001 to 0.025 µM

$$$$
>  <compound>
Cc1nc(N)c2c(-c3ccc(NC(=O)C(O)c4cccc(C(F)(F)F)n4)cc3C)cn(C)c2n1 (stereo not shown) [Example 62]

>  <IC50>
0.051 to 0.1 µM

$$$$
>  <compound>
Cc1nc(N)c2c(-c3ccc(NC(=O)C(O)c4cccc(Cl)c4)cc3C)cn(C)c2n1 (stereo not shown) [Example 38]

>  <IC50>
0.051 to 0.1 µM

$$$$
>  <compound>
Cc1nc(N)c2c(-c3ccc(NC(=O)C(O)c4cccc(F)c4)c(F)c3C)cn(C)c2n1 (stereo not shown) [Example 12]

>  <IC50>
0.001 to 0.025 µM

$$$$
>  <compound>
Cc1nc(N)c2c(-c3ccc(NC(=O)C(O)c4cccc(F)c4)nc3C)cn(C)c2n1 (stereo not shown) [Example 127]

>  <IC50>
0.001 to 0.025 µM

$$$$
>  <compound>
Cc1nc(N)c2c(-c3ccc(NC(=O)C(O)c4cccc(F)c4)cc3C)cn(C)c2n1 (single isomer, unassigned) [Example 2]

>  <IC50>
0.051 to 0.1 µM

$$$$
>  <compound>
Cc1cc(NC(=O)Oc2ccccc2)ccc1-c1cn(C)c2ncnc(N)c12 [Example 169]

>  <IC50>
3 to 4 µM

$$$$
>  <compound>
Cc1cc(F)cc(C(O)C(=O)Nc2ccc(-c3cn(C)c4nc(C)nc(N)c34)c(F)c2)c1 (stereo not shown) [Example 86]

>  <IC50>
0.001 to 0.025 µM

$$$$
>  <compound>
Cc1nc(N)c2c(-c3c(C)cc(NC(=O)C(O)c4cccc(F)c4)cc3C)cn(C)c2n1 (stereo not shown) [Example 126]

>  <IC50>
0.001 to 0.025 µM

$$$$
>  <compound>
Cc1nc(N)c2c(-c3ccc(NC(=O)C(O)c4cccc(Cl)c4)cc3Cl)cn(C)c2n1 (stereo not shown) [Example 100]

>  <IC50>
0.026 to 0.05 µM

$$$$
>  <compound>
Cc1nc(N)c2c(-c3ccc(NC(=O)C(O)c4ccccc4C)cc3Cl)cn(C)c2n1 (stereo not shown) [Example 93]

>  <IC50>
0.501 to 1 µM

$$$$
>  <compound>
Cc1nc(N)c2c(-c3ccc(NC(=O)C(O)c4cccc(C(F)(F)F)c4)nc3C)cn(C)c2n1 (stereo not shown) [Example 130]

>  <IC50>
0.101 to 0.25 µM

$$$$
>  <compound>
Cc1cc(NC(=O)Cc2cccc(C(F)(F)F)c2)ccc1-c1cn(C)c2ncnc(N)c12 [Example 158]

>  <IC50>
0.001 to 0.025 µM

$$$$
>  <compound>
Cc1cc(NC(=O)Cc2cccc3cnccc23)ccc1-c1cn(C)c2ncnc(N)c12 [Example 156]

>  <IC50>
0.051 to 0.1 µM

$$$$
>  <compound>
Cc1cc(NC(=O)Nc2ccccc2)ccc1-c1cn(C)c2ncnc(N)c12 [Example 170]

>  <IC50>
0.001 to 0.025 µM

$$$$
>  <compound>
COc1cc(NC(=O)C(O)c2cccc(F)c2)ccc1-c1cn(C)c2nc(C)nc(N)c12 (single isomer, unassigned) [Example 106]

>  <IC50>
0.101 to 0.25 µM

$$$$
>  <compound>
Cc1cc(NC(=O)C(O)c2ccccc2Cl)ccc1-c1cn(C)c2ncnc(N)c12 (stereo not shown) [Example 33]

>  <IC50>
0.001 to 0.025 µM

$$$$
>  <compound>
CCc1cccc(C(O)C(=O)Nc2ccc(-c3cn(C)c4nc(C)nc(N)c34)c(Cl)c2)c1 (stereo not shown) [Example 98]

>  <IC50>
0.051 to 0.1 µM

$$$$
>  <compound>
Cc1nc(N)c2c(-c3ccc(NC(=O)C(O)c4cccc(C(F)(F)F)c4)cc3F)cn(C)c2n1 (stereo not shown) [Example 78]

>  <IC50>
0.001 to 0.025 µM

$$$$
